Just for reference, PubChem BioAssay (NCI) is where these values come from.

In this section, each of the compounds is paired with its reported growth.
Tested on: OVCAR-5 ovarian
protocol summary: NCI-60 one-dose screen, 48 h (100 = growth as untreated, 0 = no growth, -100 = all killed)
test settings: 10 µM unless noted
The panel holds about 83,000 compounds, 20% with a hit somewhere; the sample as a whole holds those more often.
quantity name: growth (%)

compound	quantity name	test result
C=C(C)[C@@H]1CC[C@]2(COC(C)=O)CC[C@]3(C)[C@H](CC[C@@H]4[C@@]5(C)CCCN(C(C)=O)C(C)(C)[C@@H]5CC[C@]43C)[C@@H]12	growth	59.2
Cc1nc2ccccc2c(/C=C/c2ccccc2)c1C(=O)/C=C/c1ccccc1	growth	6.51
C/C=C(\C)C(=O)N[C@H]1C(O)C[C@]2(C)C3CC[C@@]4(C)C(CC[C@@H]4C(C)N(C)C)C3CCC2C1O (stereo partly specified)	growth	95
c1ccc(CCNc2c3ccccc3nc3ccccc23)cc1	growth	53.4
C[C@@H]1O[C@@H](O[C@@H]2C[C@H](c3ccc4c(c3O)C(=O)C3=C(C4=O)[C@@]4(O)C(=O)C[C@](C)(O)C[C@@]4(O)C=C3)O[C@H](C)[C@H]2O)CC[C@@H]1O[C@H]1C[C@@H](O)[C@H](O)[C@@H](C)O1	growth	110
CCOc1ccc(-n2nc(C(=O)NCc3ccccc3OC)nc2-c2cc(OC)c(OC)c(OC)c2)cc1	growth	74.2
CSC(SC)=C(C#N)c1nc2ccccc2s1	growth	72.5
CCN1C(=O)N(CC)C2C1NN=c1s/c(=C\c3cnc(C)n3C)c(=O)n12 (stereo unspecified)	growth	35.2
C=CN(C(=O)N1CCN(c2cc3c(cc2F)c(=O)c(C(=O)O)cn3C2CC2)CC1)c1nc(-c2ccc(OC)cc2)cs1	growth	33.8
Cc1ncc(C(=O)Nc2ccc(CN3CCN(C)CC3)c(C(F)(F)F)c2)cc1C#Cc1cnc(N)c2ncccc12	growth	49.8
C=C1CC[C@@H]2[C@](C)(COC(C)=O)[C@H](OC(C)=O)CC[C@@]2(C)[C@@H]1CC(Nc1ccc(S(=O)(=O)NC(C)=O)cc1)C1=CCOC1=O (stereo partly specified)	growth	-40.1
S=c1nc2oc(-c3ccccc3)c(-c3ccccc3)c2c(/N=C\c2ccco2)[nH]1	growth	87.7
O=c1c2ccccc2c(=O)c2c1sc1c(=O)c3ccc(O)cc3c(=O)c12	growth	-74.7
Cc1n[nH]c2ccc(Br)cc2c1=O	growth	102
COC(=O)CCC/C=C\C[C@H]1C=CC(=O)/C1=C/C[C@@H](O)C/C=C\CC(F)(F)F	growth	39
CC[C@]12C=CCN3CC[C@@]4(c5ccc(OC)cc5N(C)[C@H]4[C@@](O)(C(=O)OC)[C@@H]1OC(=O)CCC[P+](c1ccccc1)(c1ccccc1)c1ccccc1)[C@@H]32	growth	21.4

* * *

Test system: PC-3 prostate
protocol summary: NCI-60 one-dose screen, 48 h (100 = growth as untreated, 0 = no growth, -100 = all killed)
test settings: 10 µM unless noted
This is part of a sample that, as a whole, favours compounds with a hit. Of some 83,000 tested, about 20% had one in any assay.
Threshold rule: growth greater than or equal to 50% is satisfied; below that, not satisfied.

molecule	class name
FC(F)(F)Oc1cccc(-c2cnc3ccc(-c4ccncc4)nn23)c1	not satisfied
C=Cc1cnc(Nc2ccc(OC)cc2)nc1NCCCNC(=O)C1CCC1	satisfied
COc1cc(OC)cc(-c2ccc(-c3ccc(C(=N)N)o3)o2)c1	satisfied
COc1ccc(/C=C/C(=O)c2cc3c(N)c(C(=O)Nc4cccc(Cl)c4C)sc3nc2C)cc1	not satisfied
CCN1C(=O)N(CC)C2C1NN=c1s/c(=C\c3cnc(C)n3C)c(=O)n12 (centres undefined)	not satisfied
Cc1ccnc(Nc2ccc([N+](=O)[O-])c(NCCN3CCOCC3)n2)c1	not satisfied
CNCc1cccc2c1OCCOCCOCCNS(=O)(=O)c1ccc(cc1)-c1cnc(N)c(n1)C(=O)N2	not satisfied
CCNc1ccc(-c2nc3ccccc3n3cccc23)cc1	satisfied
CCOC(=O)C1=C(C)/C(=C\c2[nH]c(C)c(C(=O)OCC)c2C)N=C1C	satisfied
Cn1cc(-c2nn3cc(-c4cccs4)nc3s2)c2cc(F)ccc21	not satisfied
COc1cccc(-c2cc(-c3cccc(Cl)c3)c(C#N)c(=O)[nH]2)c1	satisfied
Cc1ccc(Cl)cc1NC(=O)c1sc2nc3c(cc2c1N)C(=O)CCC3	satisfied
CCOC(=O)C(Cc1ccc(OC)cc1)C(=O)OCC	not satisfied
O=C(CCSc1nnc2n(Cc3ccccc3)c(=O)c3c4c(sc3n12)CCCC4)N1CCN(c2ccccc2)CC1	satisfied
CCN(CC)c1ccc(CNc2cc(C)nc3ccccc23)cc1	satisfied
Nc1nc(N)c2c(n1)NC(c1ccc(Cl)cc1)C1CCc3ccccc3C1=N2 (centres undefined)	satisfied
CN1C(=O)/C(=C/c2ccc(C(=O)Nc3ncc(Cc4cccc(Cl)c4)s3)cc2)SC1=S	satisfied
O=C(Cc1ccccc1)Nc1cccc(N=Cc2ccccc2O)c1	satisfied
Cc1c(Cl)cccc1C(=O)Nc1nc2c(s1)CN(C(=O)c1ccc(C(F)(F)F)cc1)CC2	not satisfied
COc1ccc(C(=O)c2cc3c(N)c(C(=O)Nc4ccccc4)sc3nc2C)cc1	not satisfied
CC(=C(c1ccc(OCCN2CCCCC2)cc1)c1ccc(OCCN2CCCCC2)cc1)c1ccc(Cl)cc1	not satisfied
Cc1ccc(CNc2ccc3nc(CCC(C)C)[nH]c3c2)cc1	satisfied
O=C1NC(=O)/C(=C/c2c(-c3ccccc3)nc3sc(COc4ccccc4)nn23)S1	satisfied
COc1ccc(C2CC(c3cc(OC)c(OC)c(OC)c3)=NO2)cc1OCCCCOc1cc2c(cc1OC)C(=O)N1CCC[C@H]1C=N2 (some centres undefined)	not satisfied
Cc1ccc2c(-n3nc(C#N)c(C#N)c3N)cc(=O)[nH]c2c1	satisfied
C#CCNC(=O)[C@]1(C)CCC[C@@]2(C)[C@H]1CC=C1C=C(C(C)C)CC[C@@H]12	satisfied
CN1CCN(CCCOc2cccc3nc(Nc4ccc(F)c(F)c4)ccc23)CC1	not satisfied
CCSc1oc(C)nc1[P+](c1ccccc1)(c1ccccc1)c1ccccc1	not satisfied
C=CC(=O)Nc1ccc(Oc2nccc(Nc3nnc(-c4ccc(C)cc4)s3)n2)cc1	satisfied
Oc1c(CN2CCCC2)cc(CSCc2ccccc2)c2cccnc12	not satisfied
CCOC(=O)c1c(C)nc2c(c1N)CC(=O)N2Cc1ccc(OC)cc1	not satisfied
O=C(Nc1cnc(Nc2ccc(N3CCOCC3)nc2)nc1Oc1ccc(C(F)(F)F)cc1)c1ccncc1	satisfied
COc1cnc2c(c1)C(=O)c1c-2n(CCCCl)c(=O)c2ccncc12	satisfied
N#Cc1c(-c2ccccc2)nc(SCC(O)CN2CCOCC2)nc1N1CCOCC1 (centres undefined)	satisfied
CN(C)CCCNC(=O)c1cncnc1Nc1ccc(OCc2cccc(F)c2)c(Cl)c1	not satisfied
COc1cc(-c2nc3sccn3c2-c2ccnc(NCCNS(=O)(=O)c3ccc(Cl)cc3)n2)ccc1F	not satisfied
C=C(C)[C@@H]1CCC[C@]2(C(=O)O)CC[C@]3(C)[C@@H](CC[C@@H]4[C@@]5(C)C/C(=C/c6ccncc6)C(=O)C(C)(C)[C@@H]5CC[C@]43C)[C@@H]12	not satisfied
COc1ccc(C2=NN(C(C)=O)C(c3cn(-c4ccccc4)nc3-c3ccc(Cl)cc3)C2)cc1 (centres undefined)	not satisfied

* * *

System: SF-539 CNS
protocol summary: NCI-60 one-dose screen, 48 h
test settings: 10 µM unless noted
The panel holds about 83,000 compounds, 20% with a hit somewhere; the sample as a whole holds those more often. The source made the active and inactive calls. Rule for the calls: active = growth percent below 10; inactive = the rest.
Labels: active, inactive

compound	class name
Nc1nc(N)c2c(n1)NC(c1cccc(Nc3ccnc4cc(C(F)(F)F)ccc34)c1)CC(c1ccc(Br)cc1)=N2 (centres undefined)	inactive
O=[N+]([O-])c1ccc(-c2cn3nc(-c4c[nH]c5ccccc45)sc3n2)cc1	inactive
CN(CCCNC(=O)Cc1ccc2ccc3cccc4ccc1c2c34)CCCNc1cc(-c2ccc3ccccc3c2)nc2ccccc12	active
COc1ccc2c(c1)c(-c1nc(-c3c[nH]c4ncccc34)cs1)cn2CCCN1CCOCC1	inactive
COc1ccc(C2=NN(C(C)=O)C(c3cn(-c4ccccc4)nc3-c3ccc(Cl)cc3)C2)cc1 (centres undefined)	inactive
CC(C)=CCNc1ncnc2c1ncn2C1OC(CO)C(O)C1O (centres undefined)	active
Cc1ncc(C(=O)Nc2ccc(CN3CCN(C)CC3)c(C(F)(F)F)c2)cc1C#Cc1cnc(N)c2ncccc12	inactive
COc1cc(OC)c2sc(-c3ccc(-n4cncc4-c4cc(OC)c(OC)c(OC)c4)cc3)nc2c1	inactive
CCOC(=O)c1c(C)nc2ccccc2c1/C=C/c1cccs1	inactive

* * *

In this section, each of the compounds is paired with its reported growth.
Tested on: SN12C renal
protocol summary: NCI-60 one-dose screen, 48 h (100 = growth as untreated, 0 = no growth, -100 = all killed)
test settings: 10 µM unless noted
About 83,000 compounds went through this panel and 20% of them were active in at least one assay; those are over-represented in the sample as a whole.

compound	growth [%]
CC1(C)CC2=C3C=C[C@@H]4[C@@]5(C)CCC(=O)C(C)(C)[C@@H]5CC[C@@]4(C)[C@]3(C)CC[C@@]2(C(=O)O)C[C@H]1O	21.8
COc1ccc(C2=CN3CC=CC3CC2=O)cc1 (stereo not given)	109
CC(C)(C)n1cc(-c2ccnc(NCCNS(=O)(=O)c3ccc(O)cc3)c2)c(-c2cccc(O)c2)n1	98.3
OCCNCCNC(Cc1ccc(Cl)cc1)c1ccccc1 (stereo not given)	92
COc1ccc2c(c1)/C(=N/c1n[nH]c(=S)s1)C(=O)N2	97.8
CCOC(=O)c1c(C)nc2ccccc2c1/C=C/c1cccs1	78.4
N#Cc1c(-c2ccccc2)nc(SCC(O)CN2CCOCC2)nc1N1CCOCC1 (stereo not given)	57.8
COc1ccc2nc(Cl)c(/C=C3\CC(c4ccccc4)=NN(c4ccccc4)C3=O)cc2c1	72.3
Nc1nc(N)c2c(n1)NC(c1cccc(Nc3ccnc4cc(C(F)(F)F)ccc34)c1)CC(c1ccc(Br)cc1)=N2 (stereo not given)	63
O=S(=O)(NCCCNc1nccc(-c2c(-c3cccc(F)c3)nc3occn23)n1)c1ccc(F)cc1	51.2
O=C(O)c1cn(C2CC2)c2cc(N3CCN(C(=O)Nc4nc(-c5ccc(Br)cc5)cs4)CC3)c(F)cc2c1=O	6.36
Cc1ccc(C2CC(c3nc(-c4ccc(Cl)cc4)oc3C)=NN2C(=O)c2ccncc2)cc1 (stereo not given)	86.8
CCN1C2CCC1/C(=C\c1ccc(F)cc1)C(=O)/C2=C/c1ccc(F)cc1	44.5
CCOC(=O)c1c(C)nc2c(c1N)/C(=C/c1ccc(OC)cc1)C(=O)N2Cc1ccccc1	57.4
O=C(C1=Cc2cc3ccccc3n2Cc2cnnn21)c1ccc(O)cc1	57.7
COc1cc(OC)cc(-c2ccc(-c3ccc(C(=N)N)o3)o2)c1	53
COc1ccc(C(=O)N2c3ccccc3Sc3ccccc32)c(C(F)(F)F)c1	40.1
CN(Cc1cnc2nc(N)nc(N)c2n1)c1ccc(C(=O)NC(CCC(=O)O)C(=O)O)cc1Br (stereo not given)	26
CC(=O)c1sc2sc(C(C)=O)c(C)c2c1C	98
C=C1C(=O)O[C@H]2[C@H]1CC/C(Cn1cc(CCC)nn1)=C\CC[C@@]1(C)O[C@@H]21	23.1
C=C1C(=O)O[C@H]2[C@H]1CC/C(COC(=O)c1ccc(C(=O)O)s1)=C\CC[C@@]1(C)O[C@@H]21	-8.57
COc1cccc(CCNc2ncnc3c2ncn3Cc2nnc3c4ccccc4c(Cl)nn23)c1	46.9
C/C(Cc1ccc(Cl)cc1)=C(\c1ccc(OCCCN(C)C)cc1)c1ccc(OC(=O)Cc2ccccc2)cc1	105
COc1ccc(-c2nc3c(N)c(CO)cnc3s2)cc1	108
O=C(N=Nc1c(O)[nH]c2ccccc12)Nc1ccc(F)cc1	94.6
C=C1CC[C@@H]2C(C)(C)[C@@H](O)CC[C@@]2(C)[C@@H]1COc1ccc2ccc(=O)oc2c1	74.9
O=C(Cc1ccc(NC(=O)c2cccc(Cl)c2)cc1)NCc1ccccc1	58.1
COc1cc(C(=O)n2nc(N3CCOCC3)c3cc(-n4cccc4)ccc32)cc(OC)c1OC	69
CCc1ccc(CCC(=O)Nc2ncc(Cc3ccccc3)s2)o1	42.3
NC(=O)c1cccc([C@@H]2O[C@H](CO)[C@@H](O)[C@H]2O)c1	94.1
O=C(CCSc1nnc2n(Cc3ccccc3)c(=O)c3c4c(sc3n12)CCCC4)N1CCN(c2ccccc2)CC1	94.8
NC1(CO)COC(c2ccccc2)OC1 (stereo not given)	104
O=C1Nc2ccccc2/C1=C\c1c[nH]c2ccc(Br)cc12	84.9
COC(=O)c1c2c(c(C)[n+]([O-])c1C)C(=O)C(NCc1ccc(OC)cc1)=CC2=O	0.985
O=C1/C(=C\c2ccccn2)c2ccccc2N1c1c(Cl)cccc1Cl	18.1
CCC1S/C(=N\N=C(\C)c2cc3cc(Cl)ccc3o2)N(c2ccccc2)C1=O (stereo not given)	118
CN(Cc1ccccc1)c1nc(Cl)c(C2CC(c3ccccc3)=NN2c2ccccc2)s1 (stereo not given)	103
COc1cccc(-c2cc(-c3cccc(Cl)c3)c(C#N)c(=O)[nH]2)c1	85.2
CSc1nc(C)c([N+](=O)[O-])c(N)n1	99.1
NC(=O)c1c(NC(=O)c2cccc(C(F)(F)F)c2)sc2c1CCC(=O)C2	3.64
